experiment: Microsomal stability in human liver microsomes assessed as intrinsic clearance at 1 uM preincubated for 10 mins followed by NADPH addition and measured upto 60 mins by LC-MS/MS analysis; type: ADME, Microsome; details: time < 70 min, read-out: CLH
endpoint_name: CLint scaled at 1 µM
Units required after the number.

q: Fill in the blank: the reported CLint scaled at 1 µM of `O=C(NCc1cccs1)[C@@H]1CN(C(=O)c2cccnc2)CCN1c1ccc(Cl)c(Cl)c1` is ____.
a: 994 mL/min/kg

---

The listing below reports pIC50 for compounds tested on Cathepsin K (Homo sapiens, UniProt P43235).
Sequence (P43235 whole entry): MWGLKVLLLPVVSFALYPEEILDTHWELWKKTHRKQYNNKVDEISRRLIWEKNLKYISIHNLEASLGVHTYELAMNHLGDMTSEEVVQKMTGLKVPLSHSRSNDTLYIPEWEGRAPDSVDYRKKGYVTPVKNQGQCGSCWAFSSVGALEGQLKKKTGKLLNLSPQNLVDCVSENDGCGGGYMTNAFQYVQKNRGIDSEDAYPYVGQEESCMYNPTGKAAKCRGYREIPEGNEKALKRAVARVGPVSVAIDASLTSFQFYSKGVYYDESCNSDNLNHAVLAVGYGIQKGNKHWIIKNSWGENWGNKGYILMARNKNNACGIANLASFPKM
pIC50 (log units): -log10 of the concentration in mol/L.

O=C(NCc1cccs1)[C@@H]1CN(C(=O)c2cncc3ccccc23)CCN1c1ccc(Cl)c(Cl)c1 :: 4.30

q: Requested read-out: pIC50. Entry: `O=C(NCc1cccs1)[C@@H]1CN(C(=O)c2cccnc2)CCN1c1ccc(Cl)c(Cl)c1`
a: 4.30

---

target: UniProt P0DTD1
endpoint_name: IC50 (nM)
Numbers only; they are read as nM.

See these solved cases before continuing.
O=C(NCc1ccco1)[C@@H]1CN(C(=O)c2cc(=O)[nH]c(=O)[nH]2)CCN1Cc1ccc(Cl)cc1Cl :: 0.48
O=C(NCc1cccs1)C1CN(C(=O)c2cc(=O)[nH]c(=O)[nH]2)CCN1c1ccc(Cl)c(Cl)c1 (racemic) :: 0.61
O=C(NCc1cccs1)[C@@H]1CN(C(=O)c2cc(=O)[nH]c(=O)[nH]2)CCN1c1ccc(Cl)c(Cl)c1 (racemic) :: 0.4

q: Lab note: need IC50 with UniProt P0DTD1 for entry `O=C(NCc1ccco1)[C@@H]1CN(C(=O)c2cc(=O)[nH]c(=O)[nH]2)CCN1c1ccc(Cl)c(Cl)c1` , please look it up.
a: 0.35

q: API: value(readout=IC50, system=UniProt P0DTD1) for record `O=C(NCc1cccs1)[C@@H]1CN(C(=O)c2cncc3ccccc23)CCN1c1ccc(Cl)c(Cl)c1`
a: 0.44

q: Short answer please: IC50, UniProt P0DTD1, entry `O=C(NCc1cccs1)[C@@H]1CN(C(=O)c2cccnc2)CCN1c1ccc(Cl)c(Cl)c1`
a: 0.4

q: Provide value of IC50 for this record tested with UniProt P0DTD1: `O=C(NCc1cccs1)[C@@H]1CN(C(=O)c2cc(=O)[nH]c(=O)[nH]2)CCN1Cc1ccc(Cl)cc1Cl`
a: 0.44

q: What measured IC50 is associated with O=C(NCc1ccco1)C1CN(C(=O)c2cc(=O)[nH]c(=O)[nH]2)CCN1Cc1ccc(Cl)cc1Cl (stereo not given) on UniProt P0DTD1?
a: 0.59

q: Value wanted: IC50 (UniProt P0DTD1) of entry O=C(NCc1ccco1)C1CN(C(=O)c2cc(=O)[nH]c(=O)[nH]2)CCN1c1ccc(Cl)c(Cl)c1 (racemic)
a: 0.79

q: Entry `O=C(NCc1ccco1)[C@H]1CN(C(=O)c2cc(=O)[nH]c(=O)[nH]2)CCN1c1ccc(Cl)c(Cl)c1` , system UniProt P0DTD1: what IC50 was measured?
a: 2.98

---

assay: Clearance in Sprague-Dawley rat at 2 mg/kg, iv measured upto 24 hrs by LC-MS/MS analysis; format: ADME, organism-based; conditions: in vivo
endpoint_name: clearance (mL/min/kg)
Expressed in mL/min/kg, but write only the number.

q: Returns the measured clearance for the input molecule. Input: `O=C(NCc1cccs1)[C@@H]1CN(C(=O)c2cccnc2)CCN1c1ccc(Cl)c(Cl)c1`
a: 52.3

---

test: AUC (0 to t) in Sprague-Dawley rat at 2 mg/kg, iv measured upto 24 hrs by LC-MS/MS analysis; format: ADME, organism-based; parameters: dose 2 mg/kg, time < 24 hrs, route iv; settings: in vivo
endpoint_name: AUC(0-t) at 24 h (ng·h/mL)
Answer with a number only, understood to be in ng·h/mL.

q: What AUC(0-t) at 24 h value was documented for this compound, `O=C(NCc1cccs1)[C@@H]1CN(C(=O)c2cccnc2)CCN1c1ccc(Cl)c(Cl)c1` ?
a: 627

---

test: MRT (0 to infinity) in Sprague-Dawley rat at 10 mg/kg, po measured upto 24 hrs by LC-MS/MS analysis; assay type: ADME, organism-based; details: in vivo
endpoint_name: MRT inf (h)
Entry rule: numbers only, all in h.

q: Any idea what its MRT inf is? The compound is `O=C(NCc1cccs1)[C@@H]1CN(C(=O)c2cccnc2)CCN1c1ccc(Cl)c(Cl)c1`
a: 2.45

---

assay: Cytotoxicity against African green monkey Vero E6 cells assessed as reduction in cell viability; format: toxicity, cell-based; conditions: chlorocebus sabaeus
endpoint_name: CC50 (nM)
Give the value in nM but do not write nM after it.

q: Form field: reported CC50 of `O=c1[nH]cc(-c2cc(-c3cc(Cl)cc(OCc4ccccc4Cl)c3)c(=O)n(-c3cccnc3)c2)c(=O)[nH]1`
a: 1700

---

assay: Kinetic solubility of the compound at pH 7.3; assay type: physicochemical; settings: buffer, read-out: Kinetic_solubility
endpoint_name: solubility kinetic (µg/mL)
Please state the figure in µg/mL; there is no need to write the unit.

q: Please give the measured solubility kinetic for this molecule: `O=C(NCc1cccs1)[C@@H]1CN(C(=O)c2cccnc2)CCN1c1ccc(Cl)c(Cl)c1`
a: 4.1

---

assay: Cmax in Sprague-Dawley rat at 10 mg/kg, po measured upto 24 hrs by LC-MS/MS analysis; type: ADME, organism-based; parameters: time < 24 hrs, dose 10 mg/kg, route po; details: in vivo
endpoint_name: Cmax

q: Reported Cmax for `O=C(NCc1cccs1)[C@@H]1CN(C(=O)c2cccnc2)CCN1c1ccc(Cl)c(Cl)c1` : what is it?
a: 74.6 ng/mL

---

assay: Tmax in Sprague-Dawley rat at 2 mg/kg, iv measured upto 24 hrs by LC-MS/MS analysis; type: ADME, organism-based; details: in vivo
endpoint_name: Tmax (min)
Response body: numeric value in min, unit text excluded.

q: Fill in: Tmax of `O=C(NCc1cccs1)[C@@H]1CN(C(=O)c2cccnc2)CCN1c1ccc(Cl)c(Cl)c1` is ___
a: 4.8
